Source: patent US8129417B2

Can you tell me log10 IC50 for the items I'm about to list?
# target under test: human Cav2.2 (Homo sapiens, UniProt Q00975)
# Sequence (Q00975 whole entry): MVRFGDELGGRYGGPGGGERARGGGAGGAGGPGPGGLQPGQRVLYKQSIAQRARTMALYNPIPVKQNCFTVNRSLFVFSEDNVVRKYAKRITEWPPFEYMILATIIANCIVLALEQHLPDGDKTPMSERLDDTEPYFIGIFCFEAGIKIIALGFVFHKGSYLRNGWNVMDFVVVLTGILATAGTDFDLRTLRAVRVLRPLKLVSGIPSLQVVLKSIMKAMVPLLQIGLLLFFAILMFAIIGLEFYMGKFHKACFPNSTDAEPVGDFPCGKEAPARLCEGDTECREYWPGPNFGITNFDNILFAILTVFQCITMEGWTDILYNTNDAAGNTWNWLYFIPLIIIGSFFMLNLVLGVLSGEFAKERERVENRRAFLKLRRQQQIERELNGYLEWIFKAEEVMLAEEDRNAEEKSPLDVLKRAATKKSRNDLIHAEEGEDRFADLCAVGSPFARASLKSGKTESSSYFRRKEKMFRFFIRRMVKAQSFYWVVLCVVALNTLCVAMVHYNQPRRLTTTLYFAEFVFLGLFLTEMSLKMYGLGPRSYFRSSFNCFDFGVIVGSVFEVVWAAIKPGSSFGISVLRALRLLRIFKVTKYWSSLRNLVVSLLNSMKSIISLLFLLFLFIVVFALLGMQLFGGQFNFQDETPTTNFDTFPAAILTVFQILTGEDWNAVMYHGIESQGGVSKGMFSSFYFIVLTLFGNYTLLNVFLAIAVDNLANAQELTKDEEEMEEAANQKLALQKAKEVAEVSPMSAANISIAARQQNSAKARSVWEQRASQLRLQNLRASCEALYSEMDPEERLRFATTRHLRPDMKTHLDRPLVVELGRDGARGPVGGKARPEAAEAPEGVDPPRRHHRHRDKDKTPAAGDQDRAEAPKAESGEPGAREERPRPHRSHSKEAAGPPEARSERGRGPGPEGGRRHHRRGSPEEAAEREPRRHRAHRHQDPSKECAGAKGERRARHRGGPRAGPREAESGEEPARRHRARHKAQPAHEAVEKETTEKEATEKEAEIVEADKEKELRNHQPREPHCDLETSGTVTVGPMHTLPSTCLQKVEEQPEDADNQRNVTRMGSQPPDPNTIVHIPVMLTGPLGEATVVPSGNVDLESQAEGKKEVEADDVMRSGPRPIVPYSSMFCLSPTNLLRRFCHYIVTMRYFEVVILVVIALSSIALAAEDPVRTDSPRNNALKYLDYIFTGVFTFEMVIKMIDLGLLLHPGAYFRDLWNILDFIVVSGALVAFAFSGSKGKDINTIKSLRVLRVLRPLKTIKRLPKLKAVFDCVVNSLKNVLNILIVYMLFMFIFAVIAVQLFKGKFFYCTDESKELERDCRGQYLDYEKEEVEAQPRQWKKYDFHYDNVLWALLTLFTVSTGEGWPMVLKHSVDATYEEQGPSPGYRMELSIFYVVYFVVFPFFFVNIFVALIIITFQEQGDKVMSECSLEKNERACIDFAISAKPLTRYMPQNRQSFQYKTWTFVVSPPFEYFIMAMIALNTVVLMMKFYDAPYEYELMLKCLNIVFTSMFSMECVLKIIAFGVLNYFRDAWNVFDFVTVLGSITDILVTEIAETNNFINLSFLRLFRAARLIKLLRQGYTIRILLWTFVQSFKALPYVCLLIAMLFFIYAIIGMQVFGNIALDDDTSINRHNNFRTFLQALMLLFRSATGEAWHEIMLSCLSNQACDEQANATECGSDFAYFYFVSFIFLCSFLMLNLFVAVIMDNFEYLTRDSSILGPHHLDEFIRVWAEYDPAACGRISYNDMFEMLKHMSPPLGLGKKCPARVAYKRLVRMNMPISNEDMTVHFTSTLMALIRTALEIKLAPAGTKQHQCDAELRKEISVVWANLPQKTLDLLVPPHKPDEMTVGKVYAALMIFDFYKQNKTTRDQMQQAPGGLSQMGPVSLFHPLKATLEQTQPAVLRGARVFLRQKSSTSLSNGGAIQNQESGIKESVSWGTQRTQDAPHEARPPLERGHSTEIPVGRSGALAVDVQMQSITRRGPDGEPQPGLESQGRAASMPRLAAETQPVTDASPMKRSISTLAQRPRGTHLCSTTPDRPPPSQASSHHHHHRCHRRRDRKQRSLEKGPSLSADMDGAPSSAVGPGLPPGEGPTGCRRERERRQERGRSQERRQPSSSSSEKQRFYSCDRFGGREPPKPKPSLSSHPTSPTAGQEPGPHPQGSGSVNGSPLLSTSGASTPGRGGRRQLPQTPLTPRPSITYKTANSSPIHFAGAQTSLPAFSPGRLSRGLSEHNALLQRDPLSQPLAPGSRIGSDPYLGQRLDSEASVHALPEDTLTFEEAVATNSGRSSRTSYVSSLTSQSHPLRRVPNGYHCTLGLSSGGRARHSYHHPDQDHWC
# Sequence (P54289 25-946 partner limits assumed): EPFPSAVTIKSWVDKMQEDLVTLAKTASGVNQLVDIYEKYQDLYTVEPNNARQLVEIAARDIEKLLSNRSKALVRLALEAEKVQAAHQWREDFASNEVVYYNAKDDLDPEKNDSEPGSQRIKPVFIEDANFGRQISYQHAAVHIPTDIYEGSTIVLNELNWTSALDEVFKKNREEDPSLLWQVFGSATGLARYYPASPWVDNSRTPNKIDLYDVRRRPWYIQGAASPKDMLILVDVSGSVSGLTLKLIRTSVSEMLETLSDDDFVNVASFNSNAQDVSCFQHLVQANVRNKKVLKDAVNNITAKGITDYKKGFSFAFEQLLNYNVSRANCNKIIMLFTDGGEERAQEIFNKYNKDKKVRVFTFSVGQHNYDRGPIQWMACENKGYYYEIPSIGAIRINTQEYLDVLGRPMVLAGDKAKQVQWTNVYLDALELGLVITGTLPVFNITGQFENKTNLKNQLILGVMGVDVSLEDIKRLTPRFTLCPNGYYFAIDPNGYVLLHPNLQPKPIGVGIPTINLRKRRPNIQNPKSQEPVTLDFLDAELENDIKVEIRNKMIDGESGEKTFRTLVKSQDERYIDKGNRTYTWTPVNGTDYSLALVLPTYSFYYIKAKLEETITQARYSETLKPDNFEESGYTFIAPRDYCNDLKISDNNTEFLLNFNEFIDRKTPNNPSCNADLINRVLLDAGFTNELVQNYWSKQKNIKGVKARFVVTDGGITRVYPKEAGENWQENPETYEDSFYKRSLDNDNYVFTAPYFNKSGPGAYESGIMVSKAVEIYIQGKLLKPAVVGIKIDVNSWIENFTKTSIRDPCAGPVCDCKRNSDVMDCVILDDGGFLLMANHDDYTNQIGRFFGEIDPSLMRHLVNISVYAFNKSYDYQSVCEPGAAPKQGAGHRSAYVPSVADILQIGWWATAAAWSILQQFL
# Sequence (P54289 947-1103 partner limits assumed): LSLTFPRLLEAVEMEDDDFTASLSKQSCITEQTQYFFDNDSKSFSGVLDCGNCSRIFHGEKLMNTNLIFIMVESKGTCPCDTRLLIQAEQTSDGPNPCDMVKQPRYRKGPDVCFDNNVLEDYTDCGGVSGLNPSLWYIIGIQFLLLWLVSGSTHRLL
# Sequence (P54284 whole entry partner): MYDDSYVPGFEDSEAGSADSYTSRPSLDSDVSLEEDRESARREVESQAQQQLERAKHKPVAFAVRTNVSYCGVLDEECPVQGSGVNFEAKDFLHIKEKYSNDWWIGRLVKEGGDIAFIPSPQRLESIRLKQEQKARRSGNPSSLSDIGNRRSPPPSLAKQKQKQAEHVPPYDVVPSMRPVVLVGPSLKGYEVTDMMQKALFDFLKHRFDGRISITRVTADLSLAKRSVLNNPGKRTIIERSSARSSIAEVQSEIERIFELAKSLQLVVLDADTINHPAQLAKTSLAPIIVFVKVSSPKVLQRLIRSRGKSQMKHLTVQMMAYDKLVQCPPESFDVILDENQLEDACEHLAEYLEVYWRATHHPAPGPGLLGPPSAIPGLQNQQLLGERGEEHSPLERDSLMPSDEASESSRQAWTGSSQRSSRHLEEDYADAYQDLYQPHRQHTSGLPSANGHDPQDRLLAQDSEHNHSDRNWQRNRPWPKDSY
# measurement notes: Assessment of calcium channel activity using FLIPR (Ca2+ influx in IMR32 cells)
# Type: cell-based
# condition context: 60 minute pre-incubation with compound, 2 μM nifedipine, depolarized with 80 mM KCl
Please note: log10 values; quantity IC50; unit nM.

For the compound CC(C)C(C(=O)N[C@H]1CC[C@@H]2CN(Cc3cccc(C(F)(F)F)c3)C[C@@H]21)C(C)C , give its measured log10 IC50 value. 3.55

Specify reported log10 IC50 for the compound shown: O=C(N[C@H]1CC[C@H]2CN(CCCCCC(c3ccc(F)cc3)c3ccc(F)cc3)C[C@H]21)C(C1CCCCC1)C1CCCCC1 2.95

Determine its reported log10 IC50: CN(C(=O)OC(C)(C)C)[C@@H](CC(C)(C)C)C(=O)N[C@H]1CC[C@@H]2CN(Cc3ccccc3)C[C@@H]21 3.56

Complete the entry with log10 IC50 for CCC[C@H](NC(C)C)C(=O)N[C@H]1CC[C@@H]2CN(S(=O)(=O)c3ccc(C(F)(F)F)cc3)C[C@@H]21 3.36

Supply measured log10 IC50 of CCC[C@H](NC)C(=O)N[C@H]1CC[C@@H]2CN(CCC(c3ccc(F)cc3)c3ccc(F)cc3)C[C@@H]21 in your reply. 3.49

Please indicate log10 IC50 recorded for CCC[C@H](N)C(=O)N[C@@H]1CC[C@H]2CN(S(=O)(=O)c3cccc(C(F)(F)F)c3)C[C@H]21 3.51

Tell me measured log10 IC50 for CC(C)OC(=O)N[C@H](C(=O)N[C@H]1CC[C@@H]2CN(Cc3ccc(C(F)(F)F)cc3)C[C@@H]21)C(C)(C)C please. 3.44

Determine from records and report log10 IC50 for O=S(=O)(N[C@H]1CC[C@@H]2CN(Cc3ccccc3)C[C@@H]21)c1cccc(C(F)(F)F)c1 3.41

Provide one value: measured log10 IC50 of CCC[C@H](NC)C(=O)N[C@H]1CC[C@@H]2CN(S(=O)(=O)c3cccc(Cl)c3Cl)C[C@@H]21 3.02

Give log10 IC50 for the following compound: CN[C@@H](CC(C)C)C(=O)N[C@@H]1CC[C@H]2CN(C(c3ccccc3)c3ccccc3)C[C@H]21 3.35

Return value of log10 IC50 for input CCC[C@H](NC)C(=O)N[C@H]1CC[C@H]2CN(S(=O)(=O)c3ccc(C(F)(F)F)cc3)C[C@H]21 , no commentary. 3.73

Tell me its log10 IC50 given CC(C)(C)C[C@H](NC1CCCC1)C(=O)N[C@H]1CC[C@@H]2CN(C(=O)[C@H](CC(C)(C)C)NC3CCCC3)C[C@@H]21 as the entry. 3.93

Give log10 IC50 for CC(C)C[C@H](NCC(C)(C)C)C(=O)N[C@H]1CC[C@@H]2CN(S(=O)(=O)c3ccc(C(F)(F)F)cc3)C[C@@H]21 3.14

For the compound O=C(N[C@H]1CC[C@H]2CN(Cc3cccc(C(F)(F)F)c3)C[C@H]21)C(O)C1CCCCC1 (stereo partly drawn) , report log10 IC50. 3.27

Kindly indicate its recorded log10 IC50. Item: CN[C@H](C(=O)N[C@H]1CC[C@@H]2CN(S(=O)(=O)c3ccc(F)cc3)C[C@@H]21)C(C)C 3.96

In one line, give reported log10 IC50 of the entry O=C(N[C@@H]1CC[C@H]2CN(Cc3cccc(C(F)(F)F)c3)C[C@H]21)C(C1CCCCC1)C1CCCCC1 . 2.70

Tell me measured log10 IC50 for CCN(C(=O)[C@H](CC(C)(C)C)NC)[C@H]1CC[C@@H]2CN(S(=O)(=O)c3ccc(C(F)(F)F)cc3)C[C@@H]21 please. 3.43

Provide one value: measured log10 IC50 of O=C(N[C@H]1CC[C@H]2CN(Cc3cccc(F)c3)C[C@H]21)C(C1CCCCC1)C1CCCCC1 3.11

In one line, give reported log10 IC50 of the entry CN(C(=O)OC(C)(C)C)C(Cc1ccccc1)C(=O)NC1CCC2CN(S(=O)(=O)c3cccc(C(F)(F)F)c3)CC21 (stereo not drawn) . 2.89

Supply measured log10 IC50 of CCC[C@H](NC(=O)OC(C)C)C(=O)N[C@H]1CC[C@@H]2CN(Cc3ccc(C(F)(F)F)cc3)C[C@@H]21 in your reply. 3.70

State its log10 IC50 for this compound: CN[C@@H](CC(C)(C)C)C(=O)N[C@@H]1CC[C@H]2CN(S(=O)(=O)c3cccc(C(F)(F)F)c3)C[C@H]21 3.12

Write down log10 IC50 measured for item CC(C)C[C@H](NS(C)(=O)=O)C(=O)N[C@H]1CC[C@@H]2CN(Cc3ccccc3)C[C@@H]21 3.90

Recall and state the measured log10 IC50 for O=C(CC(c1ccccc1)c1ccccc1)N[C@@H]1CC[C@H]2CN(Cc3cccc(C(F)(F)F)c3)C[C@H]21 (relative stereo) . 2.78

Tell us which log10 IC50 value is on record for CN[C@@H](CC(C)(C)C)C(=O)N(C1CC1)[C@H]1CC[C@@H]2CN(S(=O)(=O)c3ccc(C(F)(F)F)cc3)C[C@@H]21 3.10

Quickly give me recorded log10 IC50 for CN[C@H](C(=O)N[C@@H]1CC[C@H]2CN(S(=O)(=O)c3ccc(C(F)(F)F)cc3)C[C@H]21)C(C)C 3.31

Determine from records and report log10 IC50 for CC[C@H](C)[C@H](NC)C(=O)N[C@H]1CC[C@@H]2CN(S(=O)(=O)c3cccc(C(F)(F)F)c3)C[C@@H]21 3.26

Supply log10 IC50 value. Item: CN[C@@H](CC(C)C)C(=O)N[C@@H]1CC[C@H]2CN(Cc3ccc(C(F)(F)F)c(F)c3)C[C@H]21 3.73

----------
# target under test: human Cav2.2 (Homo sapiens)
# measurement notes: Assessment of calcium channel activity using FLIPR (Ca2+ influx in IMR32 cells)
# Type: cell-based
# condition context: 60 minute pre-incubation with compound, 2 μM nifedipine, depolarized with 80 mM KCl
Provide the reported IC50 of each item.
Give your result in nM as a bare value.

For human Cav2.2 (Homo sapiens), give IC50 of the listed compound: CN[C@H](C(=O)N[C@@H]1CC[C@H]2CN(S(=O)(=O)c3ccc(F)cc3)C[C@H]21)C(C)C 6860

Give the observed IC50 of CCCN[C@@H](CC(C)(C)C)C(=O)N[C@H]1CC[C@@H]2CN(S(=O)(=O)c3ccc(C(F)(F)F)cc3)C[C@@H]21 for human Cav2.2 (Homo sapiens). 1030

Fill: IC50 (human Cav2.2 (Homo sapiens)) for this compound CCC[C@H](NC1CCCCC1)C(=O)N[C@H]1CC[C@@H]2CN(S(=O)(=O)c3ccc(C(F)(F)F)cc3)C[C@@H]21 870

State IC50 on human Cav2.2 (Homo sapiens). Entry: CCC[C@H](NC)C(=O)N[C@H]1CC[C@@H]2CN(S(=O)(=O)c3ccc(-c4ccccc4)cc3)C[C@@H]21 2150

Param request: IC50 | system human Cav2.2 (Homo sapiens) | item CN[C@@H](CC(C)C)C(=O)N[C@@H]1CC[C@H]2CN(Cc3ccccc3)C[C@H]21 33300

# return IC50 for CCC[C@H](NC(C)C)C(=O)N[C@@H]1CC[C@H]2CN(S(=O)(=O)c3ccc(C(F)(F)F)cc3)C[C@H]21 , test system: human Cav2.2 (Homo sapiens) 1970

Given CC(C)C[C@@H](C(=O)N[C@H]1CC[C@@H]2CN(Cc3ccccc3)C[C@@H]21)N(C)C(=O)OC(C)(C)C , report its IC50 on human Cav2.2 (Homo sapiens). 2050

// output IC50; input CC(C)(C)C[C@H](NC(=O)OC(C)(C)C)C(=O)N[C@H]1CC[C@@H]2CN(c3cccc(C(F)(F)F)n3)C[C@@H]21 ; system human Cav2.2 (Homo sapiens) 280

Param request: IC50 | system human Cav2.2 (Homo sapiens) | item O=[N+]([O-])c1ccccc1S(=O)(=O)N[C@H]1CC[C@@H]2CN(S(=O)(=O)c3ccc(C(F)(F)F)cc3)C[C@@H]21 3680

Report value only: IC50, human Cav2.2 (Homo sapiens), CC[C@H](C)[C@@H](C(=O)N[C@H]1CC[C@@H]2CN(S(=O)(=O)c3cccc(C(F)(F)F)c3)C[C@@H]21)N(C)C(=O)OC(C)(C)C 480

Give the observed IC50 of CN[C@H](C(=O)N[C@@H]1CC[C@H]2CN(S(=O)(=O)c3cccc(C(F)(F)F)c3)C[C@H]21)C(C)C for human Cav2.2 (Homo sapiens). 3690

Give the observed IC50 of CC(C)(C)C[C@H](N)C(=O)N[C@H]1CC[C@@H]2CN(S(=O)(=O)c3ccc(C(F)(F)F)cc3)C[C@@H]21 for human Cav2.2 (Homo sapiens). 800

# lookup: human Cav2.2 (Homo sapiens) IC50, key = CC(C)C[C@@H](C(=O)N[C@H]1CC[C@@H]2CN(Cc3cccc(C(F)(F)F)c3)C[C@@H]21)N(C)C(=O)OC(C)(C)C 1540
